biological target: PDGFR-β (Homo sapiens); assay: Biochemical PDGFR assay (ELISA, PDGFR-β expressing NIH 3T3 cell lysate); conditions: read-out: bio PDGF IC50
Sequence (P09619 33-1106): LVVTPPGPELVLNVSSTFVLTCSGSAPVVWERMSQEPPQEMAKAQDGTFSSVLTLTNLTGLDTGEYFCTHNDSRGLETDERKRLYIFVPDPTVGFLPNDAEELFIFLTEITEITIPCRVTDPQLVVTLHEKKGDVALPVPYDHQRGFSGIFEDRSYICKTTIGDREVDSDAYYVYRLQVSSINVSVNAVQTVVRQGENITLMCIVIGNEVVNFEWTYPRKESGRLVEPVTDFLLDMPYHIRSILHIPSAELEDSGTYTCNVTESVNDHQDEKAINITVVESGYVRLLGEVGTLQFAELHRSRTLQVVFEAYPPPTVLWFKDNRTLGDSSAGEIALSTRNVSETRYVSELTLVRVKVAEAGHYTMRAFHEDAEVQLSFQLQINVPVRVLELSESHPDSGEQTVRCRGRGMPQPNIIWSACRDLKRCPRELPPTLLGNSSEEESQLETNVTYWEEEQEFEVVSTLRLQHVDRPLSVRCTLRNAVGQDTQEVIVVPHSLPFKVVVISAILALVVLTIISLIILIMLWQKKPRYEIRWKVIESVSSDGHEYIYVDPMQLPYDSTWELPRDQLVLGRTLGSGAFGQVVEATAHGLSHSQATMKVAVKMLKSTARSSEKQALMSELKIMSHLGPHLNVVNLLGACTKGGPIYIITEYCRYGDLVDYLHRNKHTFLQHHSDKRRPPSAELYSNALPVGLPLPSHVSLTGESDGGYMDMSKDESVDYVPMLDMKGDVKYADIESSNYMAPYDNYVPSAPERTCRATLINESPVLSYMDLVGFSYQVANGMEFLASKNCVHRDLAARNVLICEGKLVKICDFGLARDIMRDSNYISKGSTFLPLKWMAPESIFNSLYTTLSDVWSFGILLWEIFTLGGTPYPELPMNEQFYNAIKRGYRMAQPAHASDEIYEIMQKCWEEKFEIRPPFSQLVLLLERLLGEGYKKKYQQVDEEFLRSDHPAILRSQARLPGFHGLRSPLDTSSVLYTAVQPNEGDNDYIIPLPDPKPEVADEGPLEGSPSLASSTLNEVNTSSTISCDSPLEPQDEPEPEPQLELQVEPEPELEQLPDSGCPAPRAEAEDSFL
Would you kindly list IC50 for each of these compounds?
Give bare numbers, in µM.

Parameters: items (list). Returns: IC50 for each item.
1. O=C(O)CCc1c(C=C2C(=O)Nc3cc(N4CCOCC4)ccc32)[nH]c2c1CCCC2
2. O=C1Nc2cc(Cl)ccc2/C1=C/c1cc2ccccc2[nH]1
3. CC(C)NS(=O)(=O)c1ccc2c(c1)C(=Cc1[nH]c3c(c1CCC(=O)O)CCCC3)C(=O)N2

1: 84.6; 2: 8.02; 3: 23.4
